target: PI3Kα E545K (Homo sapiens, UniProt P42336, E545K); experiment: PI3Kα E545K mutant in vitro cell based assay, MCF-7 cells; conditions: MCF-7 cell line, 0% FBS, 3 hours treatment
Sequence (P42336 whole entry E545K): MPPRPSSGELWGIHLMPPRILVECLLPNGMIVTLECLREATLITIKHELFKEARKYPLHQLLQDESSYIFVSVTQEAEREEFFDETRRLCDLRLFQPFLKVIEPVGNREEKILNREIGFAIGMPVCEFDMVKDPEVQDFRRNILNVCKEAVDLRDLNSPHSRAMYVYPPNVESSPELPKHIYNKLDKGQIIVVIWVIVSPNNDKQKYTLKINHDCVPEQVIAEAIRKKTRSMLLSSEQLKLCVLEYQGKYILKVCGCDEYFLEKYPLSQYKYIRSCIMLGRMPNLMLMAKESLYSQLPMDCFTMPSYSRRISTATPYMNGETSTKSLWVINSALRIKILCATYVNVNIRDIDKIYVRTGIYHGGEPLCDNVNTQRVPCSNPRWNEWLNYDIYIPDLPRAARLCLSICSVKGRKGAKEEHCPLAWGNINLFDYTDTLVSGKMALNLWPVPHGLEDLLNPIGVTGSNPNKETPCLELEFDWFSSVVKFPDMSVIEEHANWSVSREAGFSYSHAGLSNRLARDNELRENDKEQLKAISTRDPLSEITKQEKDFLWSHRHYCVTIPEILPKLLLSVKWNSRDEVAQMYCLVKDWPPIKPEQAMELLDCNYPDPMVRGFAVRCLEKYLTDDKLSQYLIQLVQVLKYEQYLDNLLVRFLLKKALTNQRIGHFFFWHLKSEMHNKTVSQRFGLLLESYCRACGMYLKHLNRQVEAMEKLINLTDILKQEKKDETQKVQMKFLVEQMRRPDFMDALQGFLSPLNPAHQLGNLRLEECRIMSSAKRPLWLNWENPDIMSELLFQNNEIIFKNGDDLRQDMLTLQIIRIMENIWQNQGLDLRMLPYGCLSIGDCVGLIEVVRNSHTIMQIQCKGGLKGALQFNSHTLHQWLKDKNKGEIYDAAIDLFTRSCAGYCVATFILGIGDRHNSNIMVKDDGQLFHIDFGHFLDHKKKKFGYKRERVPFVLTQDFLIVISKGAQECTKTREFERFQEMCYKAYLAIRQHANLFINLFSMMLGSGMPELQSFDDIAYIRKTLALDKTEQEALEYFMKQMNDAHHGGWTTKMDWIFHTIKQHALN
Sequence (P27986 whole entry partner): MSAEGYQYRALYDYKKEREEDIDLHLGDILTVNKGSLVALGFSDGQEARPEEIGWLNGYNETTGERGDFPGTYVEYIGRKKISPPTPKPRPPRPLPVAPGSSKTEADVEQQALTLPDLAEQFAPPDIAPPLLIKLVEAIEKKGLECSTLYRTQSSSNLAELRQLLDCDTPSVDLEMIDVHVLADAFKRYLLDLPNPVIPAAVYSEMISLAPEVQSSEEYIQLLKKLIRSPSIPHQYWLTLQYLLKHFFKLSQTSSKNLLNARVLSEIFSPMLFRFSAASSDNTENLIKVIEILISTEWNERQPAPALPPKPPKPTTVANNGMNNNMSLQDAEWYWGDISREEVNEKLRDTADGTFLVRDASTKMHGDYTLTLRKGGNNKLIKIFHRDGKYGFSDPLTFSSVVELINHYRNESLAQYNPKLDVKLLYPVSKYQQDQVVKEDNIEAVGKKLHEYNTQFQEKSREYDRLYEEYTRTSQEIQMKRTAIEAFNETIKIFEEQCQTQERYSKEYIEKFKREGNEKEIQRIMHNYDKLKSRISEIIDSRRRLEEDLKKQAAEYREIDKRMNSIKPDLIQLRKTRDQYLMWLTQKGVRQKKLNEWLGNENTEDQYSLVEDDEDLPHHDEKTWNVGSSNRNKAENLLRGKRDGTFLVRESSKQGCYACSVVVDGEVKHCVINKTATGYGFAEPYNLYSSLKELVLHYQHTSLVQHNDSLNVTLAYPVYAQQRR
Property Label: IC50

Cc1cc([C@@H](C)Oc2ccc(Cl)nc2S(N)(=O)=O)c2oc(-c3ccc4nc(C)cn4n3)c(C)c(=O)c2c1 [Example 19C]; < 500 nM
Cc1cc([C@@H](C)Oc2ccc(Cl)nc2C(N)=O)c2oc(-c3ccc4[nH]ncc4c3)c(C)c(=O)c2c1 [Example 22B]; < 500 nM
Cc1cc([C@@H](C)Oc2ccc(Cl)nc2C)c2oc(-c3ccccc3)c(C)c(=O)c2c1; < 500 nM

Let us move to another entry and its IC50.
*Q* Any idea what IC50 was measured for Cc1cc([C@@H](C)Oc2ccc(F)c(F)c2C(N)=O)c2oc(-c3ccc4nn(C)cc4c3)c(C)c(=O)c2c1 [Example 17A] ?
*A* < 500 nM
